Below, each of the binders is paired with its reported log10(Trimeric HA Binding RLU) value.
# measured.target: recombinant soluble homotrimeric HA of A/chicken/Vietnam/NCVD-016/08 (H5N1) (Influenza A virus A/chicken/Vietnam/NCVD-016/2008 (H5N1))
# experiment.description: HA microarray, BCC supernatant
# recorded.conditions: remark: other sources report otherwise
// units: RLU (pre-log); metric: Trimeric HA Binding RLU; scale: log10

A selection of reference data follows.
Exercise: Assign log10(Trimeric HA Binding RLU) to the following record: TCN-540 (5060_F05) (antibody, V domains shown) VH: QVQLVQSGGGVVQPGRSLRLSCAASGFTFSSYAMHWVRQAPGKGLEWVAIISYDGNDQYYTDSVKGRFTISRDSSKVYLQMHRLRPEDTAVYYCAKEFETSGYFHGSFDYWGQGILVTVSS VL: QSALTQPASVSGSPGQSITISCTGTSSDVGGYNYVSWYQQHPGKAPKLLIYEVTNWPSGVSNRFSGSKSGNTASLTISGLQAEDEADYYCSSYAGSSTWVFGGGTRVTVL
Solution: 1.85

Exercise: Let me know recorded log10(Trimeric HA Binding RLU) for TCN-539 (5056_A08) (antibody, V domains shown) VH: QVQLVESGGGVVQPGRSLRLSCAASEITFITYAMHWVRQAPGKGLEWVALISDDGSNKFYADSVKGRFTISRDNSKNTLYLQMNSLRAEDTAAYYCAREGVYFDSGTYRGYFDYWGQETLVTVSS VL: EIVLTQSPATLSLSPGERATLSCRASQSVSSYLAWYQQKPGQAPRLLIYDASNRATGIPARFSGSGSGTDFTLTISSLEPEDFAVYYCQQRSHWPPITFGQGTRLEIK , thanks.
Solution: 2.00

Exercise: Note down log10(Trimeric HA Binding RLU) recorded for TCN-553 (5261_C18) (antibody, V domains shown) VH: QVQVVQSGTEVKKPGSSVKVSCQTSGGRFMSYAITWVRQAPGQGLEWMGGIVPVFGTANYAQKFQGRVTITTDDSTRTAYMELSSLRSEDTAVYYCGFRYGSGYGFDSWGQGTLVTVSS VL: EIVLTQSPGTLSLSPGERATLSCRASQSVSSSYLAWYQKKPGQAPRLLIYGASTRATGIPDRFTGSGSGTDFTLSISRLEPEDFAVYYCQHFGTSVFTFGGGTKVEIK
Solution: 4.38

Exercise: Specify measured log10(Trimeric HA Binding RLU) for TCN-536 (5095_N01) (antibody, V domains shown) VH: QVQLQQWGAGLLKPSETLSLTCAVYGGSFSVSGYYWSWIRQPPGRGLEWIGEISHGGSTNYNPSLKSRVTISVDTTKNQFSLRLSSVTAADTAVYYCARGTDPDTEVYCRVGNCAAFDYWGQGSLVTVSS VL: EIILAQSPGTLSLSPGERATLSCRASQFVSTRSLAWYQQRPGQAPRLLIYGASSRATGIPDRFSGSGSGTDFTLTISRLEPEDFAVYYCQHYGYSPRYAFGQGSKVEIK .
Solution: 2.46

Could you now consider this next binder?
Exercise: Consider the binder TCN-552 (5249_I23) (antibody, V domains shown) VH: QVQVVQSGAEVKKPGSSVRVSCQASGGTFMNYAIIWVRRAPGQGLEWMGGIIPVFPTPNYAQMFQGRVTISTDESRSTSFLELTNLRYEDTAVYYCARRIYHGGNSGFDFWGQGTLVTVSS VL: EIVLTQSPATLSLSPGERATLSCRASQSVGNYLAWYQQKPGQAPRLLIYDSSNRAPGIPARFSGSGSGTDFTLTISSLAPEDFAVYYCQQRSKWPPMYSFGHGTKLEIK and give its recorded log10(Trimeric HA Binding RLU).
Solution: 4.66
